- Assay summary: ACEA_ER_AUC_viability: ACEA Biosciences xCELLigence Real-Time Cell Analysis on Estrogen Receptor Agonism for Viability (AID 2283782);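 note: continuous compound exposure with impedance area under curve over 80 h; hit means loss of impedance signal meaning reduced cell growth or viability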
Records with an inconclusive call do not appear. Activity calls are given as the source filed them. Rule for the calls: active = hit-call score of the fitted dose curve at least 0.9, where 1 is the maximum; inconclusive = response in the unintended direction; inactive = score below 0.9.
// one of active, inactive, no free text

Record excerpt, results attached:
C#CCC1=C(C)C(OC(=O)C2C(C=C(C)C)C2(C)C)CC1=O (centres undefined)
active
O=c1ccc(=O)[nH][nH]1
inactive
CC[C@H](C)[C@H]1O[C@]2(C=C[C@@H]1C)C[C@@H]1C[C@@H](C/C=C(\C)[C@@H](O[C@H]3C[C@H](OC)[C@@H](O[C@H]4C[C@H](OC)[C@@H](NC)[C@H](C)O4)[C@H](C)O3)[C@@H](C)/C=C/C=C3\CO[C@@H]4[C@H](O)C(C)=C[C@@H](C(=O)O1)[C@]34O)O2
active
CCCOCC(=Nc1ccc(Cl)cc1C(F)(F)F)n1ccnc1
active
COP(=O)(OC)C(O)C(Cl)(Cl)Cl (centres undefined)
active
COc1cccc(C(=O)NN(C(=O)c2cc(C)cc(C)c2)C(C)(C)C)c1C
inactive

I'd appreciate the recorded outcome for C=C(C)[C@H]1Cc2c(ccc3c2O[C@@H]2COc4cc(OC)c(OC)cc4[C@@H]2C3=O)O1 from this test.
inactive

I'd appreciate the recorded outcome for CN(C)C(=O)Nc1cccc(C(F)(F)F)c1 from this test.
inactive

I'd appreciate the recorded outcome for N#CSCSC#N from this test.
active

====

- Read-out: E-selectin (Homo sapiens)
- Assay summary: BSK_3C_Eselectin: BioMAP Diversity Plus: 3C Assay for Eselectin Biomarker Activity (AID 2283015)
- Details: primary human endothelial cells (HUVEC); actives raise or lower the signal
Active and inactive are the calls of the source. Rule for the calls: active = hit-call score of the fitted dose curve at least 0.9, where 1 is the maximum; inactive = score below 0.9.
// one of active, inactive, no free text

Record excerpt, results attached:
CCCCOC(=O)c1ccccc1C(=O)O
inactive
CCOP(=O)(OCC)Oc1cc(C)nc(C(C)C)n1
inactive
C[Si](Cn1cncn1)(c1ccc(F)cc1)c1ccc(F)cc1
inactive
CSc1nnc(C(C)(C)C)c(=O)n1N
inactive
CCOP(=O)(SC(C)CC)N1CCSC1=O (centres undefined)
inactive

I'd appreciate the recorded outcome for CCc1cccc(CC)c1N(COC)C(=O)CCl from this test.
active

I'd appreciate the recorded outcome for CNC(=O)Oc1cccc2c1OC(C)(C)O2 from this test.
active

I'd appreciate the recorded outcome for CC[C@H](C)[C@H]1O[C@]2(C=C[C@@H]1C)C[C@@H]1C[C@@H](C/C=C(\C)[C@@H](O[C@H]3C[C@H](OC)[C@@H](O[C@H]4C[C@H](OC)[C@@H](NC)[C@H](C)O4)[C@H](C)O3)[C@@H](C)/C=C/C=C3\CO[C@@H]4[C@H](O)C(C)=C[C@@H](C(=O)O1)[C@]34O)O2 from this test.
active

I'd appreciate the recorded outcome for CCCOCC(=Nc1ccc(Cl)cc1C(F)(F)F)n1ccnc1 from this test.
active

I'd appreciate the recorded outcome for CC(C)[C@H](C(=O)O[C@H](C#N)c1cccc(Oc2ccccc2)c1)c1ccc(Cl)cc1 from this test.
inactive

====

- Read-out: Human Leukocyte Antigen - DR isotype (HLADR), HLA-DRA (gene 3122)
- Assay summary: BSK_BE3C_HLADR: BioMAP Diversity Plus: BE3C Assay for Human Leukocyte Antigen - DR isotype (HLADR) Biomarker Activity (AID 2283032)
- Details: primary human bronchial epithelial cells; actives raise or lower the signal
- Procedure: BSK_BE3C is a cell-based, multiplexed-readout assay that uses bronchial epithelial cell, a human lung primary cell, with measurements taken at 24 hours after chemical dosing in a 96-well plate.BSK_BE3C_HLADR is an assay component measured in the BSK_BE3C assay. It measures HLA-DR antibody related to regulation of gene expression using ELISA technology.Data from the assay component BSK_BE3C_HLADR was analyzed into 1 assay endpoint. […]
Active and inactive are the calls of the source. How the source made its calls: active means hit-call score of the fitted dose curve at least 0.9, where 1 is the maximum; inactive means score below 0.9.
// one of yes (1) = active, no (0) = inactive, no free text

Record excerpt, results attached:
CCCOCC(=Nc1ccc(Cl)cc1C(F)(F)F)n1ccnc1
yes (1)
CC1(C(=O)Nc2ccc(O)c(Cl)c2Cl)CCCCC1
no (0)
CC(C)=CC1C(C(=O)OCN2C(=O)C3=C(CCCC3)C2=O)C1(C)C (stereo not drawn)
yes (1)
C[N+]1(C)CCCCC1
no (0)
CCc1cccc(CC)c1N(COC)C(=O)CCl
yes (1)
CSC1=N[C@@](C)(c2ccccc2)C(=O)N1Nc1ccccc1
no (0)
CNC(=O)ON=C(SC)C(=O)N(C)C
no (0)
COP(=O)(OC)C(O)C(Cl)(Cl)Cl (stereo not drawn)
no (0)
CCCSP(=O)(OCC)SCCC
no (0)
COc1ccc(C(=CC(=O)N2CCOCC2)c2ccc(Cl)cc2)cc1OC
no (0)

I'd appreciate the recorded outcome for CNC(=O)Oc1cccc2c1OC(C)(C)O2 from this test.
no (0)

I'd appreciate the recorded outcome for CCOP(=S)(OCC)Oc1ccc([N+](=O)[O-])cc1 from this test.
no (0)

I'd appreciate the recorded outcome for S=C1NCCN1 from this test.
no (0)

Provenance of the data: PubChem BioAssay (EPA / NIEHS)
